Kindly state log10(koff) for each of the entries shown.
# assayed.target: cyno ST2L (cyno)
# assay.explanation: affinity table; method not stated
# values: log10(koff), units s⁻¹

# example entries with known answers
* STLM214 (antibody, from another filing, V domains shown) VH: EVQLLESGGGLVQPGGSLRLSCAASGFTFSSYDMFWVRQAPGKGLEWVSDIKGEGGRTAYADSVKGRFTISRDNSKNTLYLQMNSLRAEDTAVYYCARDPWSTEGSFFVLDYWGQGTLVTVSS VL: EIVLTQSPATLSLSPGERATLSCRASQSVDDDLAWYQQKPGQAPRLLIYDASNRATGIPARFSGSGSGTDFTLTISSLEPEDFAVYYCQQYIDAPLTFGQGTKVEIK | -3.58
* STLM226 (antibody, from another filing, V domains shown) VH: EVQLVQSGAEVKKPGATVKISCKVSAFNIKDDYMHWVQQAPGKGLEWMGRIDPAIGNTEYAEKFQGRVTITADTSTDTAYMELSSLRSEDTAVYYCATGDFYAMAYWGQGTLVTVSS VL: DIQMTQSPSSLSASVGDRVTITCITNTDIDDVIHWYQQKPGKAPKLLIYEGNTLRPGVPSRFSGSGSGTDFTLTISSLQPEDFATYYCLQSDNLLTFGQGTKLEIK | -1.52
* STLM208 (antibody, V domains shown) VH: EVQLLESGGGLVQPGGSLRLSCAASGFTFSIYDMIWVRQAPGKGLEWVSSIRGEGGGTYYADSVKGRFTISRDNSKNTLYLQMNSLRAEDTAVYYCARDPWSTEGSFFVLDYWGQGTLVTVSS VL: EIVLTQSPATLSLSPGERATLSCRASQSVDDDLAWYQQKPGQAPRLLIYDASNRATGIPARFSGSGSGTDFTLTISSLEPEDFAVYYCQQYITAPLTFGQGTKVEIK | -4.15
* STLM207 (antibody, from another filing, V domains shown) VH: EVQLLESGGGLVQPGGSLRLSCAASGFTFSSYDMIWVRQAPGKGLEWVSTIRGEGGTTAYADSVKGRFTISRDNSKNTLYLQMNSLRAEDTAVYYCARDPWSTEGSFFVLDYWGQGTLVTVSS VL: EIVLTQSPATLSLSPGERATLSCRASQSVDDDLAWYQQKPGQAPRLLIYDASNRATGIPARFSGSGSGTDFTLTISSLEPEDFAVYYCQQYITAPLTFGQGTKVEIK | -2.68
* STLM227 (antibody, from another filing, V domains shown) VH: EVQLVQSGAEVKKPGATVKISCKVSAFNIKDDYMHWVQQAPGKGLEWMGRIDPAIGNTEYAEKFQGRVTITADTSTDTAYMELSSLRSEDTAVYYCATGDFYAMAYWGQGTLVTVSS VL: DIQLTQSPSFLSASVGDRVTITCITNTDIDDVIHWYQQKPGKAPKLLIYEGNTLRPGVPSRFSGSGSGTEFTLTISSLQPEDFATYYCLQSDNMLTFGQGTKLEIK | -1.53

Could you tell me log10(koff) for each of these binders? They are listed below.
1. STLM213 (antibody, from another filing, V domains shown) VH: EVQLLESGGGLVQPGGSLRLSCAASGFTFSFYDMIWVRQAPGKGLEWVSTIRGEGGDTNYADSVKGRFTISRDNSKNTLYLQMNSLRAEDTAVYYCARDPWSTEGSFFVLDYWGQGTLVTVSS VL: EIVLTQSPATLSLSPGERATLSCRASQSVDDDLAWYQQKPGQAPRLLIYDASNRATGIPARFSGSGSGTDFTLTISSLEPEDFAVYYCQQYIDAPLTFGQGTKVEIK
2. STLM107 (antibody, from another filing, V domains shown) VH: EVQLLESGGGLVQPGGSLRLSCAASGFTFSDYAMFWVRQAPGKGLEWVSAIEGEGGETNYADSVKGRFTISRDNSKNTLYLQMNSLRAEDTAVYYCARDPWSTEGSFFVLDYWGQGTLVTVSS VL: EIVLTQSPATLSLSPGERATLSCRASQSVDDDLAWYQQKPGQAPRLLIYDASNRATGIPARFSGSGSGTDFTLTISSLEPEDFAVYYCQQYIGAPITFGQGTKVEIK
3. STLM221 (antibody, from another filing, V domains shown) VH: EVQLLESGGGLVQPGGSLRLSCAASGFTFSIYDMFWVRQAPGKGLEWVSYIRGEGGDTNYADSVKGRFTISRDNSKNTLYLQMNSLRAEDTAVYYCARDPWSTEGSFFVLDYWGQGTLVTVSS VL: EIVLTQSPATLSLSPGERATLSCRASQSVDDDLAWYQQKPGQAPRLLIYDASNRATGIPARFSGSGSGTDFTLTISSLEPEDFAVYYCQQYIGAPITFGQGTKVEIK
4. STLM103 (antibody, from another filing, V domains shown) VH: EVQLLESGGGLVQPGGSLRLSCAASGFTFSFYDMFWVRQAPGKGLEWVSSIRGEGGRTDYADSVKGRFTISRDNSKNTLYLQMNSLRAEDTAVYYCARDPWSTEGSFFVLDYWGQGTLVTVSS VL: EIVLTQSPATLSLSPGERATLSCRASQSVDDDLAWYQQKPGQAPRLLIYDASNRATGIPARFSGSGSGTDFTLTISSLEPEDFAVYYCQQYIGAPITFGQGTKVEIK
5. STLM216 (antibody, from another filing, V domains shown) VH: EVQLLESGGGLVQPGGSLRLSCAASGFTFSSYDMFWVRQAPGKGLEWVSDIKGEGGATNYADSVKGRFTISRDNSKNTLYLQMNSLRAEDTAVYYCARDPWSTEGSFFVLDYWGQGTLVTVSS VL: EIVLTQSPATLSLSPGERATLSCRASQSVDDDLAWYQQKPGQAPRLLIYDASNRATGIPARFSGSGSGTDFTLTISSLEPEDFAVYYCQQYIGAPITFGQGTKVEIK

1: -3.91; 2: -3.26; 3: -3.89; 4: -3.69; 5: -3.58
